- System Under Test: α2β1 integrin (Homo sapiens, UniProt P05556+P17301)
- Sequence (P17301 30-1181): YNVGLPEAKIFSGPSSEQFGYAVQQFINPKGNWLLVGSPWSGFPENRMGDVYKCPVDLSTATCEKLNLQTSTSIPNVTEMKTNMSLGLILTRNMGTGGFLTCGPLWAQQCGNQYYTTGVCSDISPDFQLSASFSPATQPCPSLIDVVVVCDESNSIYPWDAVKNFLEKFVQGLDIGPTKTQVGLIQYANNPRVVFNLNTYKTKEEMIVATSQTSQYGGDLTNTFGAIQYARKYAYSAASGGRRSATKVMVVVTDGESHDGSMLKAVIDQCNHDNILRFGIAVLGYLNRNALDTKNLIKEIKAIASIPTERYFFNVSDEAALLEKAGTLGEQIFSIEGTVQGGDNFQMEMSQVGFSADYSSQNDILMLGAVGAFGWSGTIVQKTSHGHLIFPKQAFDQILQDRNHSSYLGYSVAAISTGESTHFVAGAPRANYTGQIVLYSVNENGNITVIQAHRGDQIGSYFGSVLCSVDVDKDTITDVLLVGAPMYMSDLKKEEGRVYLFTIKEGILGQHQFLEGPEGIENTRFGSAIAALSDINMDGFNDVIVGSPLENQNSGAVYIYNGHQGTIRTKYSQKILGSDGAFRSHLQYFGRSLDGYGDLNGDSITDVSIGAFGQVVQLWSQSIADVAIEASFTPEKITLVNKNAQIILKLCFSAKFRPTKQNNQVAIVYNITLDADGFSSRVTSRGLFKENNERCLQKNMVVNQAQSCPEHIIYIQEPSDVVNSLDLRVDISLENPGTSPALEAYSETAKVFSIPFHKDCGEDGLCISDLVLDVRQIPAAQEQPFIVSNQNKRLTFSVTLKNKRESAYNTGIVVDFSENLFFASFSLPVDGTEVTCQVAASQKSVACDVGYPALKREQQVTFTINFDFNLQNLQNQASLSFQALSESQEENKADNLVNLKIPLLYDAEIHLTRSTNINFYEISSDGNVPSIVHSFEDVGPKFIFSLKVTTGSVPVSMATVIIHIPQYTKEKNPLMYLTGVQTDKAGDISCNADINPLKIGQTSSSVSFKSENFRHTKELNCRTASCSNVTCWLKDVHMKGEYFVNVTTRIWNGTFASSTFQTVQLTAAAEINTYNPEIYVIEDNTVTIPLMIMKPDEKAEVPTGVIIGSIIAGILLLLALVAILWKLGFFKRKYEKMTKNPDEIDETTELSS
- Sequence (P05556 21-798 partner): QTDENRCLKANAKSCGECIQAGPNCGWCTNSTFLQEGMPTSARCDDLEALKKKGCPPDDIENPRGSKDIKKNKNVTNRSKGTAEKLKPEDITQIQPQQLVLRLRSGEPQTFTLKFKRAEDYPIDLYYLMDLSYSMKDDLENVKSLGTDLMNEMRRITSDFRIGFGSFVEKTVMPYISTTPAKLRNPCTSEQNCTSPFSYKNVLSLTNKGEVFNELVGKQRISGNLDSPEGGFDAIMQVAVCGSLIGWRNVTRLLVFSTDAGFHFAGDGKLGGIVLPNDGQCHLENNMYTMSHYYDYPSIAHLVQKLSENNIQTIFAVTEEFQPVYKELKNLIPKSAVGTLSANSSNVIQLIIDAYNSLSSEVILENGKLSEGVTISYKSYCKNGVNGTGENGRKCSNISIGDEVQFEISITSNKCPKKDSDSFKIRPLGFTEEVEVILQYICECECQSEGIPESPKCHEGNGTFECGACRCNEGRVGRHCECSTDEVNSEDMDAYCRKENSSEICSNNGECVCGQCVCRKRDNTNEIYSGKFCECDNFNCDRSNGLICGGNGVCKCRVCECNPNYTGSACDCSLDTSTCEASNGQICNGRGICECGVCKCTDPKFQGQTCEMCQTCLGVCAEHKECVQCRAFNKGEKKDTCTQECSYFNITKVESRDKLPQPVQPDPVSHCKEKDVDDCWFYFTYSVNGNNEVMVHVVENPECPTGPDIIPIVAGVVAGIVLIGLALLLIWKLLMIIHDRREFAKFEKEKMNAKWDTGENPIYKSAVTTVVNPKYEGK
- Test Method Notes: Cell adhesion assay
- Type: cell-based
- Study Conditions: read-out: EC50 in cell adhesion assay
pEC50: −log10 of the molar value.
Observable: pEC50

INSERT INTO assay_data (substance_smiles, system_under_test, observable, quantitative_result) VALUES
  ('Cc1nc2cc(NS(=O)(=O)c3cccc(-c4ccc(F)cc4)c3)ccc2s1', 'α2β1 integrin (Homo sapiens, UniProt P05556+P17301)', 'pEC50', 4.44),
  ('Cc1cc(F)ccc1-c1ccc(S(=O)(=O)Nc2ccc(N(C)C)cc2)s1', 'α2β1 integrin (Homo sapiens, UniProt P05556+P17301)', 'pEC50', 4.70);

[1] Cc1nc2ccc(NS(=O)(=O)c3cccc(-c4ccc(F)cc4)c3)cc2o1
[2] CN(C)c1ccc(NS(=O)(=O)c2cc(-c3ccc(F)cc3)c(-c3ccc(F)cc3)s2)cc1
Compare the recorded pEC50 of 1 and 2 ; state which is larger. Which one? Tell me its label.
1

* * *

- System Under Test: α2β1 integrin (Homo sapiens, UniProt P05556+P17301)
- Test Method Notes: Cell adhesion assay
- Assay type: cell-based
- Study Conditions: at 50 μM
Observable: Emax at 50 µM (%)

INSERT INTO assay_data (substance_smiles, observable, quantitative_result) VALUES
  ('CN(C)c1ccc(NS(=O)(=O)c2cc(-c3ccc(F)cc3)c(Cl)s2)cc1', 'Emax at 50 µM', 87),
  ('CN(C)c1ccc(N(C)S(=O)(=O)c2cccc(-c3ccc(F)cc3)c2)cc1', 'Emax at 50 µM', 59),
  ('CC(=O)c1ccc(-c2cccc(S(=O)(=O)Nc3ccc(N(C)C)cc3)c2)s1', 'Emax at 50 µM', 64),
  ('Cc1ccc(C)n1-c1ccc(NS(=O)(=O)c2ccc(Cl)cc2Cl)cc1', 'Emax at 50 µM', 71);

* * *

- System Under Test: α2β1 integrin (Homo sapiens, UniProt P05556+P17301)
- Test Method Notes: Cell adhesion assay
- Type: cell-based
- Study Conditions: at 50 μM
Observable: Emax at 50 µM (%)

INSERT INTO measurements (compound, system_under_test, unit_text, quantitative_result) VALUES
  ('COc1ccc(-c2cnn(-c3ccc(NS(=O)(=O)c4ccc(Cl)cc4)cc3)c2)cc1 [Compound 176]', 'α2β1 integrin (Homo sapiens, UniProt P05556+P17301)', '%', 59),
  ('Cc1[nH]c2ccc(NS(=O)(=O)c3ccc(Cl)cc3Cl)cc2c1C [Compound 210]', 'α2β1 integrin (Homo sapiens, UniProt P05556+P17301)', '%', 80),
  ('COc1cc(OC)nc(-c2ccc(NS(=O)(=O)c3ccc(Cl)c(Cl)c3)cc2)n1 [Compound 255]', 'α2β1 integrin (Homo sapiens, UniProt P05556+P17301)', '%', 88),
  ('COc1cc(OC)nc(-c2ccc(NS(=O)(=O)c3ccc(Cl)cc3Cl)cc2)n1 [Compound 164]', 'α2β1 integrin (Homo sapiens, UniProt P05556+P17301)', '%', 85),
  ('Cc1cc(F)ccc1-c1ccc(S(=O)(=O)Nc2ccc(N(C)C)cc2)s1 [Compound 307]', 'α2β1 integrin (Homo sapiens, UniProt P05556+P17301)', '%', 67),
  ('Cc1cc2cc(NS(=O)(=O)c3cccc(C(F)(F)F)c3)ccc2[nH]1 [Compound 230]', 'α2β1 integrin (Homo sapiens, UniProt P05556+P17301)', '%', 76),
  ('O=S(=O)(Nc1ccc(-n2cccc2)cc1)c1ccc(Cl)cc1Cl [Compound 163]', 'α2β1 integrin (Homo sapiens, UniProt P05556+P17301)', '%', 66),
  ('CN(C)c1ccc(NS(=O)(=O)c2ccc(-c3ccc(F)cc3)s2)cc1 [Compound 306]', 'α2β1 integrin (Homo sapiens, UniProt P05556+P17301)', '%', 67),
  ('CN(C)c1ccc(NS(=O)(=O)c2cccc(-c3cccc(O)c3)c2)cc1 [Compound 205]', 'α2β1 integrin (Homo sapiens, UniProt P05556+P17301)', '%', 84),
  ('Cc1cc(C)nc(Nc2ccc(NS(=O)(=O)c3cccc(-c4ccc(F)cc4)c3)cc2)n1 [Compound 201]', 'α2β1 integrin (Homo sapiens, UniProt P05556+P17301)', '%', 64),
  ('Cn1ccc2cc(NS(=O)(=O)c3cccc(-c4ccc(F)cc4)c3)ccc21 [Compound 285]', 'α2β1 integrin (Homo sapiens, UniProt P05556+P17301)', '%', 60),
  ('Cc1cc2cc(N(C)S(=O)(=O)c3cccc(Br)c3)ccc2[nH]1 [Compound 209]', 'α2β1 integrin (Homo sapiens, UniProt P05556+P17301)', '%', 64);
